- experiment summary: Primary qHTS for inhibitors of nuclear receptor binding SET domain protein 2 (NSD2) in an RCH-ACV wild type WT cells (2C) (AID 1645877); further: nearly all actives have a fitted effect of over 70% in size
- settings: RCH-ACV (leukaemia line) NSD2 WT (2C) viability, CellTiter-Glo, 72 h; series mostly up to 44.9 µM
Results filed as inconclusive are left out. Calls of active or inactive are those of the source. The call rests on the fitted dose curve; in most records, active means well fitted inhibition curve with a large enough effect; inconclusive means small, poorly fitted or top-dose-only effect; inactive means no such curve, though single readings can be large or run the other way.
Form entry, call: pick from Yes (active), No (inactive)

Solved cases below.
[
  {
    "compound": "CC(NC(=O)Cc1cc(F)cc(F)c1)C(=O)NC1C(=O)N(C)c2ccccc2-c2ccccc21 (centres undefined)",
    "label value": "Yes"
  },
  {
    "compound": "Clc1ccc(Nc2nc3ccccc3c3nc(C4CCCCC4)[nH]c23)cc1Cl",
    "label value": "Yes"
  },
  {
    "compound": "Nc1nc(Nc2ccc3c(c2)CCC(N2CCCC2)CC3)nn1-c1cc2c(nn1)-c1ccccc1CCC2 (centres undefined)",
    "label value": "Yes"
  },
  {
    "compound": "CC(C)(C)Sc1c(CC(C)(C)C(=O)O)n(Cc2ccc(Cl)cc2)c2ccc(OCc3ccc4ccccc4n3)cc12",
    "label value": "No"
  },
  {
    "compound": "Fc1ccc(-n2cc(CCCCN3CCC4(CC3)OCc3ccccc34)c3ccccc32)cc1",
    "label value": "Yes"
  }
]

Input: Given CS(=O)(=O)c1ccc(Oc2cc(F)cc(C#N)c2)c2c1[C@H](O)C(F)(F)C2 , state the outcome it received in this test.
Output: No

Input: Given CN1CC2CN(c3ccc4oc5ccccc5c(=O)c4c3)CC2C1 (centres undefined) , state the outcome it received in this test.
Output: Yes

Input: Given O=C(Nc1nc2cc(C(F)(F)F)cc(NC3CC3)n2n1)c1cccnc1 , state the outcome it received in this test.
Output: Yes

Input: Given N#Cc1cnc2c(Cl)cc(NCc3cn(CCN4CCCCCC4)nn3)cc2c1Nc1ccc(F)c(Cl)c1 , state the outcome it received in this test.
Output: Yes

====

Readings of max response for the listed compounds
- Test system: CRL-7250
- experiment summary: Cytotoxic Profiling of Annotated Libraries Using Quantitative High-Throughput Screening (AID 1296008); further: on the % scale 0 is the no-effect control and ±100 the full control effect; nearly all actives have a fitted effect of over 60% in size
- settings: Five cell lines viability, CellTiter-Glo ATP luminescence, 48-72 h; stronger effect = lower value
Results filed as inconclusive are left out.
I only need the number, in %, no unit after it.

[
  {
    "compound": "C=C(C)Cn1c(SCC(=O)c2cccs2)nc2sc3c(c2c1=O)CCCC3",
    "assay metric": "max response",
    "observed value": -0.048
  },
  {
    "compound": "COc1cc2nc(C3CC3)nc(N3CCN(c4ccccc4OC)CC3)c2cc1OC",
    "assay metric": "max response",
    "observed value": -2.72
  },
  {
    "compound": "C=C[C@@]12COC(=O)C(=C)[C@@H]1[C@@H](O)[C@H](C(=C)C(=O)OC)[C@@H](O)C2",
    "assay metric": "max response",
    "observed value": -65.9
  },
  {
    "compound": "Cc1onc(-c2ccccc2)c1C(=O)N1CCN(c2ccc([N+](=O)[O-])cc2Cl)CC1",
    "assay metric": "max response",
    "observed value": -3.78
  },
  {
    "compound": "CNC(=O)c1ccc2c(c1)CCO[C@H]2CCN1CCN(c2ccc(OC)cc2)CC1",
    "assay metric": "max response",
    "observed value": 1.26
  }
]

Input: What does the record list as max response for Cc1cccc(C#Cc2cc(F)cc(C#N)c2)n1 ?
Output: -2.01

Input: What does the record list as max response for COc1cc(/C=N\NC(=O)c2ccc3c(c2)OCO3)ccc1OCc1ccccc1 ?
Output: 3.71

Input: What does the record list as max response for CN(C)C(=O)Nc1cc(-c2ccccc2)ccc1N(C)C ?
Output: -26.2

Input: What does the record list as max response for CC(=O)OC/C(=C/C(=O)O)CC[C@@H]1C(C=O)=CC[C@@H]2C(C)(C)CCC[C@@]12C ?
Output: 4.87

Input: What does the record list as max response for Cc1[nH]c(/C=C2\C(=O)Nc3cc(-c4ccccc4)ccc32)c(C)c1CCC(=O)O ?
Output: -17.7

The reported numbers originate from PubChem BioAssay (NCATS).
